Origin of measurements: patent US20070275985A1

- Test description: logP determination by HPLC (EEC-Directive 79/831 Annex V. A8, gradient method)
- Type: physicochemical
- Condition info: HPLC (gradient method, EEC-Directive 79/831 Annex V. A8), value printed in preparation example text, read-out: HPLC: log P
Measured parameter: chromatographic logP
Please state the value as a number alone, without comment.

Value of measured chromatographic logP for the entry C[C@H](Nc1c(-c2ncncc2Cl)c(Cl)nc2ncnn12)C(F)(F)F [Example 2] : 1.98
